Test: yeast display, Sf9 membrane polyspecificity reagent, FACS + sequencing; frameworks hold sequencing errors
Readout Name: polyreactivity (PSR sort gate)

Previously resolved entries follow.
Sequence	Endpoint Value
QVQLVESGGGLVQAGGSLRLSCAASGRTFYANAMGWYRQAPGKERELVAAISTGGDGTYYADSVKGRFTISRDNAKNTVYLQMNSLKPEDTAVYYCAVRHRASGILYDYWGQGTQVTVSS	low polyreactivity
QVQLVETGGGLVQAGGSLRLSCAASGFIFSYNAMGWYRQAPGKERELVASISRADSTNYADSVKGRFTISRDNAKNTVYLQMNSLKPEDTAVYYCAKKGRTARRLYSFDYWGQGTQVTVSS	low polyreactivity
QVQLVESGGGLVQAGGSLRLSCAASGFIFPYNAMGWYRQAPGKERELVAGITSSGGGTYYADSVKGRFTISRDNAKNTVYLQMNSLKPEDTAVYYCNKVWSYHLYPYDYWGQGTQVTVSS	high polyreactivity
QVQLVESGGGLVQAGGSLRLSCAASGITFNAYVMGWYRQAPGKERELVATISQSGGSTYYADSVKGRFTISRDNAKNTVYLQMNSLKPEDTADYYCAARKYGYSYTVTRYYWGQGTQVTVSS	high polyreactivity

Recorded polyreactivity (PSR sort gate) of QVQLVESGGGLVQAGGSLRLSCAASGFIFAGYPMGWYRQAPGKERELVAGITRNGGSTYYADSVKGRFTISRDNAKNTVYLQMNSLKPEDPAVYYCAATRYSFGPRRVDYWGQGTQVTVSS , please.
high polyreactivity

---

Assay: yeast display, Sf9 membrane polyspecificity reagent, FACS + sequencing; frameworks hold sequencing errors
Readout Name: polyreactivity (PSR sort gate)

Previously resolved entries follow.
Sequence	polyreactivity (PSR sort gate)
QVQLVESGGGLVQAGGSLRLSCAASGSTFYKYAMGWYRQAPGKERELVATINISGGSTSYADSVKGRFTISRDYAKNTVYLQMNSLKPEDTAVYYCAASLTRHGYYRRFDYWGQGTQVTVSS	high polyreactivity
QVQLVESGGGLVQAGGSLRLSCAASGSTFHPNAMGWYRQAPVKERELVAAISRGGSTNYADSVKGRFTISRDNAKNTVYLQMISLKPEDSAVYYCAKDFFGISSDPVVMDYWGQGTQVTVSS	low polyreactivity
QVQLVESGGGLVQAGGSLRLSCAASGYGMGWYRQAPGKEREFVAAITSGGSTNYAVSVKGRFTISRDNAKNTVYLHMNSLKPEDSAVYYCAAAYSLYGHRYDYWGQGTQVTVSS	high polyreactivity
QVQLVESGGGLVQAGGSLRLSSAASGFTFRRYAMGWYRQAPGKERELVAAISIRGGRTYYADSVNGRFTISRDNAKNTVYLQMNSLKPEDTAVNYCAADGVYALDVESDYWGQGTQVTVSS	high polyreactivity
QVQLVESGGGLVQEGGSLRLSCAASGSTFNAYAMGWYRQAPGKERELVATINDDGGTTYYADSVKGRFTISRDNAKNTVYLQMNSLKPEDTAVYYCAASGFDTSYETAPSDSWGYDYWGQGTQVTVSS	low polyreactivity
QVQLVESGGGLVQAGGSRRLSCAASGSTFYGYAMGWYRQAPGKEREFVAAITTSGGSTYYADSVKGRFTISRDNAKNTVYLQMNSLKPEDTAVYYCDADAPSWYDRQYDYWGQGTQVTVSS	low polyreactivity

Recorded polyreactivity (PSR sort gate) of QVQLVESGGGVVQAGGSLRLSCAASGRTFMVNAMGWYRQAPGKERELVAAISQRGGSTDYADSVKGRFTISRDNAKNTVYLQMNSLIPEDTAVYYCAADSLRGSAPTYYSTLEYWGQGTQVTVSS , please.
low polyreactivity

Recorded polyreactivity (PSR sort gate) of QVQLVESGGGLVQAGGSLRLSCAASGLTFGRYAMGWYRQAPGKERELVAVINGSGGNTYYADSVKGRFTISRDNAKNTVYLQMNSLKPEDTAVYYCAARRTVQYTLYYYPDYNYWGQGTQVTVSS , please.
low polyreactivity

Recorded polyreactivity (PSR sort gate) of QVQLVESGGGLVQAGGSLRLSCAASGSIFGYNAMGWYRQAPGKEREFVAAITSGGSTYYADSVKGRFTISRDNAKNTVYLQMNSLKPEDTAVYYCRRRNVDSTRRYDYWGQGTQVTVSS , please.
high polyreactivity

Recorded polyreactivity (PSR sort gate) of QVQLVESGGGLVQAGGSLRLSCAASGSIFYPYAMGWYRQAPGKERELVAAISYSGGSTYYADSVKGSFTISRDNAKNTVYLQMNSLKPEDTAVYYCNRRYWRRPYYKYDYWGQGTQVTVSS , please.
high polyreactivity

Recorded polyreactivity (PSR sort gate) of QVQLVESGGALVQAGGSLRLSCAASGFIVDAYAMGWYRQAPGKERELVAALTRGNTYYADSVKGRFTISRDNAKNTVYLQMTSLKPEDTGVSCCAARSWQSYRSQVTHSSTLDYWGQGTQVTVSS , please.
low polyreactivity
